test-system: human TREK-1 (Homo sapiens)
Construct: expressed in transfected cells
Sequence (O95069 whole entry): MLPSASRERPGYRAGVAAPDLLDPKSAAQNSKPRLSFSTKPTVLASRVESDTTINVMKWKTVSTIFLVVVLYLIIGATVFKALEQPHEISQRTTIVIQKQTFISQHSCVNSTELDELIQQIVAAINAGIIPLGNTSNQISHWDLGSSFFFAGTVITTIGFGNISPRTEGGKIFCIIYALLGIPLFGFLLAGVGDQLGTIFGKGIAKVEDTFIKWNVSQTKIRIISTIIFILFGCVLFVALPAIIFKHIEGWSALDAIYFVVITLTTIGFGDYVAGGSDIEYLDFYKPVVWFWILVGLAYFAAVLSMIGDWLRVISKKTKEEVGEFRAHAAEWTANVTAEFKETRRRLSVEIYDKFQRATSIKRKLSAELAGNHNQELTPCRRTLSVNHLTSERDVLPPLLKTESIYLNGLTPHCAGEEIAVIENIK
method-summary: TREK-1 Thallium (Tl+) flux assay, Method 1
Type: cell-based
test-context: TREK-1 Thallium (Tl+) flux assay; values without footnote *12 are Method 1
Protocol: The term “thallium flux assay” herein refers to a fluorescence-based assay used to monitor the activity of TREK channels. Thallium is a congener of potassium that readily fluxes through the pore of TREK channels. Thallium flux is measured using a commercially available, thallium-sensitive fluorescent dye called Thallos. The detail method is described below. […] ΔRatio=(fluorescence intensity at 25 seconds after thallium addition)/(average of fluorescent intensity before thallium addition)
pIC50: −log10 of the molar value.
Readings of pIC50 for the listed molecules
measure-name: pIC50

1. CC(C)C(=O)N[C@H]1CC[C@@H](n2ncc(Cl)c2C(=O)Nc2ncc(C#Cc3ccc(F)cc3)cc2F)CC1 [Compound 45] | 6.89
2. CC(=O)N[C@H]1CC[C@@H](n2ncc(Cl)c2C(=O)Nc2ncc(C#Cc3ccc(F)cc3)cc2C)CC1 [Compound 14] | 6.59
3. O=C(Nc1ncc(C#Cc2ccccc2)cc1F)c1c(Cl)cnn1C1CCN(C(=O)C(F)(F)F)CC1 [Compound 54] | 6.85
4. CC(=O)N1CCOC(Cn2ncc(Cl)c2C(=O)Nc2ncc(C#Cc3ccccc3)cc2C)C1 (centres unmarked) [Compound 105] | 6.72
5. O=C(Nc1ncc(C#Cc2cccs2)cc1F)c1c(Cl)cnn1C1CCN(C(=O)C2COCCO2)CC1 (centres unmarked) [Compound 95] | 6.74
6. CC(=O)N1CCC(n2ncc(Cl)c2C(=O)Nc2ncc(C#Cc3ccc(F)cc3)cc2C)CC1 [Compound 8] | 6.70
7. Cc1cc(C#Cc2cccs2)cnc1NC(=O)c1c(Cl)cnn1C1CCN(C(=O)C(C)C)CC1 [Compound 111] | 6.70
8. CCC(=O)N1CCC(n2ncc(Cl)c2C(=O)Nc2ncc(C#Cc3cccs3)cc2F)CC1 [Compound 67] | 6.82
